System: LXFL 529 NSCLC
Method summary: NCI tumour cell line growth inhibition, 48 h
Property: TGI

>>> result("Cn1c(=O)c2nc(N3CCOCC3)cnc2n(C)c1=O")
"> 100 µM"
>>> result("Cn1c(=O)c2nc3c4ccccc4c(=O)n(C)c3nc2n(C)c1=O")
"> 100 µM"
>>> result("CCN=C1Nc2ccccc2-n2c(nn3nc4ccccc4c23)N1CC")
"> 100 µM"
>>> result("CCN(CC)CCC(=O)NC1c2ccccc2Oc2c(C)cccc21 (configuration not stated)")
"> 100 µM"
>>> result("COc1ccc(OC)c(NC(=O)C2=C(C)NC(C)=C(C(=O)Nc3cc(OC)ccc3OC)C2c2ccco2)c1")
"> 100 µM"
>>> result("Cc1ccc(NC(=O)OCC(COc2ccc(Cl)cc2)OC(=O)Nc2ccc(C)cc2)cc1 (configuration not stated)")
"> 100 µM"
>>> result("CN(C)CC1CCC(=C2CCCC2)C1=O (configuration not stated)")
"12.6 µM"
>>> result("O=C(O)CC(O)(c1ccccc1C(=O)O)c1cccc2ccccc12 (configuration not stated)")
"> 100 µM"
>>> result("COC(=O)c1cc(-c2ccc(OC)c(OC)c2)oc1-c1ccc(OC)c(OC)c1")
"> 100 µM"
>>> result("CN(C)Cc1cc(/C(=C(\\C#N)c2ccccc2)c2ccc(O)cc2)ccc1O")
"34.7 µM"
>>> result("O=C1/C(=C/c2ccccc2)CN(C(=O)C(F)(F)F)C/C1=C\\c1ccccc1")
"3.26 µM"
>>> result("COC1CC2C3/C(=N/Nc4ccc([N+](=O)[O-])cc4[N+](=O)[O-])CCC2(C)C3C1 (configuration not stated)")
"> 10 µM"
>>> result("COc1cc2c(cc1OC)C1Cc3sccc3CN1CC2 (configuration not stated)")
"> 100 µM"
>>> result("COc1ccc(N2C(=O)C3CC(c4ccc(C)cc4)c4c([nH]c5ccccc45)C3C2=O)cc1 (configuration not stated)")
"> 56.1 µM"
>>> result("COCN1C(=O)C2CC(/C=C/C(N)=O)=CN2C(=O)c2ccccc21 (configuration not stated)")
"> 100 µM"
>>> result("COC(=O)C(CC(=O)c1ccccc1)c1ccccc1NC(C)=O (configuration not stated)")
"> 100 µM"
>>> result("COc1ccc(NCc2cc(OC)c(OC)c(OC)c2)cc1")
"> 100 µM"
>>> result("COc1cc(C(=O)NO)ccc1O")
"> 100 µM"
>>> result("CCOc1ccccc1NC(=O)CC1Sc2ccccc2NC1=O (configuration not stated)")
"> 100 µM"
>>> result("COc1ccc(=[O+]C)c2nssc1-2")
"> 100 µM"
>>> result("CC(C)C1CNC2N1C(=O)C2(C)OCc1ccccc1 (configuration not stated)")
"> 100 µM"
>>> result("O=c1[nH]cnc2c(COCCCO)c[nH]c12")
"> 100 µM"

====

Tested on: SK-OV-3 ovarian
Method summary: NCI tumour cell line growth inhibition, 48 h; in the data active means GI50 below about 0.43 µM; inactive means the rest
Classes used: active, inactive

>>> label("CCCCCCCCc1cc[n+](CC(=O)c2ccc(Br)cc2)cc1")
"inactive"
>>> label("O=C1/C(=C/c2ccc(Cl)cc2)COc2ccc(O)cc21")
"inactive"
>>> label("COc1ccc2nc(NNC(=O)c3cnccn3)c3cccn3c2c1")
"inactive"
>>> label("COc1cc(-c2n[nH]nc2-c2ccc3c(c2)OCCO3)cc(OC)c1OC")
"active"
>>> label("C=C(C)C(=O)Oc1ccc(N=Nc2ccc(C)cc2)ccc1=O")
"inactive"
>>> label("COCC(=O)Oc1cc(-c2ccc(C)cc2C)c(OC(=O)COC)c(-c2ccc(C)cc2C)c1")
"inactive"
>>> label("[O-]c1ccccc1/C=N/c1nccs1.[O-]c1ccccc1/C=N/c1nccs1.[O]=[U+2]=[O]")
"inactive"
>>> label("Cc1cccc2c(C(=O)O[C@H](C(N)=O)[C@]3(C)CO3)cccc12")
"inactive"
>>> label("CS(=O)(=O)Nc1cc(-c2ccc3ncnc(Nc4ccc5c(cnn5Cc5cccc(F)c5)c4)c3c2)cnc1Cl")
"active"
>>> label("COc1ccc(CCn2c3c(c4c(O)cccc42)C(=O)c2ccccc2-3)cc1OC")
"inactive"
>>> label("CCN1CCC(Oc2c(C#N)ncc3[nH]c4ncccc4c23)CC1")
"inactive"
>>> label("CC(C)(C)c1ccc(C(=O)Nc2sc3c(c2C#N)CCC(=O)C3)cc1")
"inactive"

Where these numbers come from: PubChem BioAssay (NCI)
